Provenance of the data: patent US20260042753A1

# TESTED_SYSTEM: mutant cKIT (560-576 and V654A) in GIST430/654 cell line (Homo sapiens (Human), UniProt P10721, DEL560-576/V654A)
# Sequence (P10721 other isoform, or with tags, fused parts or gaps V654A/del 1-25/del 560-576 limits assumed): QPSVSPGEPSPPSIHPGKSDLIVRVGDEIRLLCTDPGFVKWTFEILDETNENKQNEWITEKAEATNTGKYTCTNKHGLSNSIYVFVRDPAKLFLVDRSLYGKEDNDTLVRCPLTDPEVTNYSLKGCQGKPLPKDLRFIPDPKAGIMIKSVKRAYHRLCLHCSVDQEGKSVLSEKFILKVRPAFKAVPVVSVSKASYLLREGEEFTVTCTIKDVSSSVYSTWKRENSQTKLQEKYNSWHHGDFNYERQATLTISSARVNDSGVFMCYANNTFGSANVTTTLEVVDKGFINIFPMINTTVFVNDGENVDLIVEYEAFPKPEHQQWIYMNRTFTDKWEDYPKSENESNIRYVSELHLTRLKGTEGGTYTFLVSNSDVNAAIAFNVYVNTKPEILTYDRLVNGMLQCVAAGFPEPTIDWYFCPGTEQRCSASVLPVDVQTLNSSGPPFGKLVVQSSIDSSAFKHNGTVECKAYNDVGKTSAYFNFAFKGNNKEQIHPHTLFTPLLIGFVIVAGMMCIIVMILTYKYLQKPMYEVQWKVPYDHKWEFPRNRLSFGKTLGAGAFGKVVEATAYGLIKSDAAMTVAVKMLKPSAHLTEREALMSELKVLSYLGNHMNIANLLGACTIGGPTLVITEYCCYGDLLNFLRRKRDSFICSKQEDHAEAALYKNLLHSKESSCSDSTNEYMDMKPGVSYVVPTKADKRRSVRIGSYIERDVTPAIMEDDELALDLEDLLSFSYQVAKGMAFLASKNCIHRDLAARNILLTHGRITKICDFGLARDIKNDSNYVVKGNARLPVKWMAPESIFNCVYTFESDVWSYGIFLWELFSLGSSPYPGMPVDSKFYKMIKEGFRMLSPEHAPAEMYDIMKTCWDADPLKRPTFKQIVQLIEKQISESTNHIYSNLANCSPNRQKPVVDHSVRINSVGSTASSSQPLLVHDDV
# MEASUREMENT_NOTES: Cellular testing of cKIT mutant inhibitors: phospho-Y307-cKIT Luminex assay in GIST430/654 cells
# Assay type: cell-based
# SETTINGS: Table 1; cKIT autophosphorylation, compounds 45 min; read-out: GIST 430/654 IC50
PARAMETER: IC50

INSERT INTO measurements (input_smiles, parameter, test_result) VALUES
  ('COCCOc1cc2[nH]nc(-c3cc(-c4ccc(C(=O)N5CC(c6nncn6CCOC)C5)cc4)no3)c2cc1F', 'IC50', '0.71 µM'),
  ('COCCOc1cc2[nH]nc(-c3cc(-c4ccc(C(=O)N5CCC6(CN(C)C6)C5)cc4)no3)c2cc1F', 'IC50', '0.17 µM'),
  ('COCCOc1cc2[nH]nc(-c3cc(-c4ccc(C(=O)N5CC6(CCOCC6)C5)cc4)no3)c2cc1F', 'IC50', '0.027 µM'),
  ('COCCOc1cc2[nH]nc(-c3cc(-c4ccc(C(=O)N5C6CC5CS(=O)(=O)C6)cc4)no3)c2cc1F', 'IC50', '0.056 µM'),
  ('COCCOc1cc2[nH]nc(-c3cc(-c4ccc(C(=O)NCC(C)(C)N5CCOCC5)cc4)no3)c2cc1F', 'IC50', '0.13 µM'),
  ('COCCOc1cc2[nH]nc(-c3cc(-c4ccc(C(=O)N5CC6(CCN(C7COC7)CC6)C5)cc4)no3)c2cc1F', 'IC50', '0.028 µM'),
  ('COCCOc1cc2[nH]nc(-c3cc(-c4ccc(C(=O)N(C)C)cn4)no3)c2cc1F', 'IC50', '0.29 µM'),
  ('COCCOc1cc2[nH]nc(-c3cc(-c4ccc(C(=O)N5CCC[C@@H]5CS(C)(=O)=O)cc4)no3)c2cc1F', 'IC50', '0.065 µM');
